# Tested System: T1, fibroblast activation protein (FAP) on FAP-expressing human WI-38 fibroblasts (human, UniProt Q12884 1-760)
# T1 construct: Endogenous FAP on WI-38 cells (ECACC) in the FACS assay; also called human FAP
# Measurement Notes: competitive FACS on WI-38 cells vs 3 nM Cy5-labeled probe; A = pIC50 >7.0
Bridges are numbered along the chain shown (N, C = ends). [ ]: non-standard residue; d: D form. The star is where a group is joined. Ttds = 1,13-diamino-4,7,10-trioxatridecan-succinamic acid, NCCCOCCOCCOCCCNC(=O)CCC(=O)*; mli(DOTA-Ttd) = 3,4-N-(DOTA-Ttd)-maleimide bridging two Cys S atoms as vinyl thioethers; mli(N4Ac-Ttd) = mli with N4Ac attached to the maleimide nitrogen via a Ttd linker; DOTA = O=C(O)CN1CCN(CC(=O)O)CCN(CC(=O)*)CCN(CC(=O)O)CC1; 4Amb = NCc1ccc(C(=O)O)cc1; Nle = CCCC[C@H](N)C(=O)O; Hexanoyl = CCCCCC(=O)*
Recorded Metric: pIC50 Category (FACS)

As a guide, the following entries are already answered.
Prompt line: What does the record list as pIC50 Category (FACS) for {DOTA-Ttds}-[Nle]CPPTEFCD[4Amb]R-NH2 (disulfide 2-8, By the running order it belongs to 1007) [compound DOTA-Ttds-Nle-[Cys-Pro-Pro-Thr-Glu-Phe-Cys]-Asp-Pamb-Arg-NH2 (1007)] ?
Response line: > 7 pIC50

Prompt line: Hexanoyl-CPPTQFCD-NH2 (linker 1-7 via mli(N4Ac-Ttd)) [compound Hex-[Cys(mli(N4Ac-Ttd))-Pro-Pro-Thr-Gln-Phe-Cys]-Asp-NH2 (2026)] ?
Response line: > 7 pIC50

Attention now shifts to the item below.
Prompt line: So what's the measured pIC50 Category (FACS) for this one? Hexanoyl-CPPTQFCD-NH2 (linker 1-7 via mli(DOTA-Ttd)) [compound Hex-[Cys(mli(DOTA-Ttd))-Pro-Pro-Thr-Gln-Phe-Cys]-Asp-NH2 (2017)]
Response line: > 7 pIC50
